# Target Under Test: human mesothelin (MSLN) (human) (UniProt Q13421)
# Measurement Notes: BLI (Octet), bsAb in 1+1 Fab-scFv-Fc format
Readout Label: Kd (nM)

Binder	Readout Label	Unit Abbreviation	Number
XENP32551 (bispecific antibody, part only; not given: anti-CD3 scFv-Fc arm, constant regions, V domains shown, not shown: another chain or arm of the molecule; a dimerising Fc or GST; small tags and cut ends) VH: QVQLVQSGAEVKKPGASVKVSCKASGYTFTSYYMHWVRQAPGQGLEWMGMIHPNSDNTIYYEKFQGRVTMTVDKSISTAYMELSRLRSDDTAVYYCAIIITPVVPKFDYWGQGTLVTVSS VL: DIVMTQSPDSLAVSLGERATINCKASHDVGTSVAWYQQKPGQSPKLLIYWASTRHTGVPDRFTGSGSGTDFTLTISSLQAEDVAVYFCQQYSSYPLTFGAGTKLEIK	Kd	nM	1.6
XENP32556 (bispecific antibody, part only; not given: anti-CD3 scFv-Fc arm, constant regions, V domains shown, not shown: another chain or arm of the molecule; a dimerising Fc or GST; small tags and cut ends) VH: QVQLVQSGAEVKKPGASVKVSCKASGYTFTSYWMHWVRQAPGQGLEWMGMIHPNSDNTIYYEKFQGRVTMTVDKSISTAYMELSRLRSDDTAVYYCARIITPVVPKFDYWGQGTLVTVSS VL: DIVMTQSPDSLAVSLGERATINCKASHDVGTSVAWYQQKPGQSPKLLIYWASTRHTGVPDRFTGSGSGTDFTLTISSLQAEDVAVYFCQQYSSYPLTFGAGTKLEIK	Kd	nM	0.469
XENP32555 (bispecific antibody, part only; not given: anti-CD3 scFv-Fc arm, constant regions, V domains shown, not shown: another chain or arm of the molecule; a dimerising Fc or GST; small tags and cut ends) VH: QVQLVQSGAEVKKPGASVKVSCKASGYTFTSYWMHWVRQAPGQGLEWMGMIHPNSGNTIYYEKFQGRVTMTVDKSISTAYMELSRLRSDDTAVYYCAIIITPVVPKFDYWGQGTLVTVSS VL: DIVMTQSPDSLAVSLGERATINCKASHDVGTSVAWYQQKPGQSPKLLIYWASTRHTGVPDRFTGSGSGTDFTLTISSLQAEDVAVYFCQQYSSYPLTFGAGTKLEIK	Kd	nM	0.684
